- experimental.system: purified recombinant mouse ENPP1 (Mus musculus (Mouse), UniProt P06802)
- Sequence (P06802 whole entry): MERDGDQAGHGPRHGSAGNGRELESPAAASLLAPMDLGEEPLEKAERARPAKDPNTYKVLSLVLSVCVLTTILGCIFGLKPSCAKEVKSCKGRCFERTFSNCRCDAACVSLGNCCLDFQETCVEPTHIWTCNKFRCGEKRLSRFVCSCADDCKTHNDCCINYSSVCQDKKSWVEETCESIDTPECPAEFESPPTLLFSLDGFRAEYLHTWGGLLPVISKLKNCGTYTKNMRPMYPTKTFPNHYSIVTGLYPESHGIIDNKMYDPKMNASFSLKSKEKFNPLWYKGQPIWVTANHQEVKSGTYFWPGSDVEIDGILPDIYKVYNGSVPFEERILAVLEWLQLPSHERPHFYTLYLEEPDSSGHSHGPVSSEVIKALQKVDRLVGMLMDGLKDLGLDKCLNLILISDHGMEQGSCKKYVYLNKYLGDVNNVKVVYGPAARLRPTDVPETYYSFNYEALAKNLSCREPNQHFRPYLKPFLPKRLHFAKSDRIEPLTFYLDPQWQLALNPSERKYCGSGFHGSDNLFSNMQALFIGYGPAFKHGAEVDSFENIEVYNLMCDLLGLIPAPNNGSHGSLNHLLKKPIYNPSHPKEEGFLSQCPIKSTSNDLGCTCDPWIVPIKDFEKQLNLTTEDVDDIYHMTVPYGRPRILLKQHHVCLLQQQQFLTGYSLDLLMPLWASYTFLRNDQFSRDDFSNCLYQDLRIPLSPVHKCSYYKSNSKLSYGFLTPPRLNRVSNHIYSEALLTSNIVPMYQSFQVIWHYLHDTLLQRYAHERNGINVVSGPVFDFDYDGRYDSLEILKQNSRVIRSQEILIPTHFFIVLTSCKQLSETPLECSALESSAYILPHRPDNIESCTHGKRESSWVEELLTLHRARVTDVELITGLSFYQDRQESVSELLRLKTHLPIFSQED
- experimental.protocol: ENPP1 enzyme activity assay using 32P cGAMP as a substrate (TLC)
- Assay type: biochemical
- measurement.setup: 32P-cGAMP 5 μM, mouse ENPP1 20 nM, pH 7.5, 5 hours
measured.metric: IC50

COc1cc2ncnc(N3CCN(C(=O)CP(=O)(O)O)CC3)c2cc1OC : 0.5 to 5 µM
COc1ccc2c(N3CCC(CCP(=O)(O)O)CC3)ncnc2c1 : < 0.5 µM
COc1ccc2c(N3CCC(CCP(=O)(O)O)CC3)nc(/C=C/c3cccnc3)nc2c1 : < 0.5 µM

IC50 for `COc1cccc2c(N3CCC(CCP(=O)(O)O)CC3)ncnc12` is < 0.5 µM

* * *

Recorded IC50 by entry
- experimental.system: purified recombinant mouse ENPP1 (Mus musculus (Mouse))
- experimental.protocol: ENPP1 activity assay using thymidine monophosphate paranitrophenol (TMP-pNP) as a substrate
- Assay type: biochemical
- measurement.setup: TMP-pNP 2 μM, mouse ENPP1 0.5 nM, pH 7.5
- Experimental: Selected compounds of Table 1, Table 2 and other derivatives were prepared and assessed in an ENPP1 activity assay using thymidine monophosphate paranitrophenol (TMP-pNP) as a substrate. […] Reaction progress was monitored by measuring absorbance at 400 nm of paranitrophenolate produced by the reaction for 20 minutes.

Look over these answered cases.
COc1cc2ncnc([C@H]3CC[C@H](CCP(=O)(O)O)CC3)c2cc1OC : < 0.5 µM
COc1cc2ncnc([C@H]3CC[C@@H](CCP(=O)(O)O)CC3)c2cc1OC : < 0.5 µM
O=P(O)(O)CCC1CCN(c2ncnc3cccc(F)c23)CC1 : < 0.5 µM

purified recombinant mouse ENPP1 (Mus musculus (Mouse)) assay, molecule `COc1ccc2c(N3CCC(CCP(=O)(O)O)CC3)nc(C)nc2c1` , recorded IC50 = < 0.5 µM

purified recombinant mouse ENPP1 (Mus musculus (Mouse)) assay, molecule `Cc1nccn1-c1cc(N2CCC(CCP(=O)(O)O)CC2)ncn1` , recorded IC50 = < 0.5 µM

purified recombinant mouse ENPP1 (Mus musculus (Mouse)) assay, molecule `COc1cc2ncnc(N3CCC(COP(=O)(O)O)CC3)c2cc1OC` , recorded IC50 = < 0.5 µM

purified recombinant mouse ENPP1 (Mus musculus (Mouse)) assay, molecule `COc1cc2ncnc(N3CCN(C(=O)CP(=O)(O)O)CC3)c2cc1OC` , recorded IC50 = < 0.5 µM

purified recombinant mouse ENPP1 (Mus musculus (Mouse)) assay, molecule `CC(C)Oc1ccc2c(N3CCC(CCP(=O)(O)O)CC3)ncnc2c1` , recorded IC50 = > 10 µM

purified recombinant mouse ENPP1 (Mus musculus (Mouse)) assay, molecule `COc1cc2nccc(N3CCC(CCP(=O)(O)O)CC3)c2cc1OC` , recorded IC50 = < 0.5 µM

purified recombinant mouse ENPP1 (Mus musculus (Mouse)) assay, molecule `COc1cccc2c(N3CCC(CCP(=O)(O)O)CC3)ncnc12` , recorded IC50 = < 0.5 µM

purified recombinant mouse ENPP1 (Mus musculus (Mouse)) assay, molecule `COc1cc2ncnc(N3CCC(CCP(O)(O)=S)CC3)c2cc1OC` , recorded IC50 = < 0.5 µM

purified recombinant mouse ENPP1 (Mus musculus (Mouse)) assay, molecule `COc1ccc(OC)c2c(N3CCC(CCP(=O)(O)O)CC3)ncnc12` , recorded IC50 = 0.5 to 5 µM

purified recombinant mouse ENPP1 (Mus musculus (Mouse)) assay, molecule `CNC(=O)NCC1CCN(c2ncnc3cc(OC)c(OC)cc23)CC1` , recorded IC50 = > 10 µM

* * *

- experimental.system: purified recombinant mouse ENPP1 (Mus musculus (Mouse))
- experimental.protocol: ENPP1 activity assay using thymidine monophosphate paranitrophenol (TMP-pNP) as a substrate
- Format: biochemical
- measurement.setup: TMP-pNP 2 μM, mouse ENPP1 0.5 nM, pH 7.5
Recorded IC50 by entry

COc1cc2ncnc(N3CCC(CCB(O)O)CC3)c2cc1OC : < 0.5 µM
COc1cc2ncnc(N3CCC(CP(=O)(O)O)CC3)c2cc1OC : < 0.5 µM
O=P(O)(O)CCC1CCN(c2ncnc3cc(Cl)ccc23)CC1 : < 0.5 µM

Let us move to another entry and its IC50.
IC50 for `COc1cccc2c(N3CCC(COP(=O)(O)O)CC3)ncnc12` is < 0.5 µM

* * *

Recorded IC50 by entry
- experimental.system: purified recombinant mouse ENPP1 (Mus musculus (Mouse))
- experimental.protocol: ENPP1 activity assay using thymidine monophosphate paranitrophenol (TMP-pNP) as a substrate
- Assay type: biochemical
- measurement.setup: TMP-pNP 2 μM, mouse ENPP1 0.5 nM, pH 7.5

Look over these answered cases.
COc1cc2ncnc(N3CCC(CC(=O)NO)CC3)c2cc1OC : 0.5 to 5 µM
O=P(O)(O)CCC1CCN(c2ncnc3cc(O)ccc23)CC1 : < 0.5 µM
O=P(O)(O)CCC1CCN(c2ncnc3ccc(O)cc23)CC1 : 0.5 to 5 µM
COc1ccc2c(N3CCN(CCP(=O)(O)O)CC3)ncnc2c1 : > 10 µM
Nc1ccc2c(N3CCC(CCP(=O)(O)O)CC3)ncnc2c1 : < 0.5 µM
O=P(O)(O)CCC1CCN(c2ncnc3cc4c(cc23)OCCO4)CC1 : 0.5 to 5 µM
Cc1nccn1-c1cc(N2CCN(CCP(=O)(O)O)CC2)ncn1 : < 0.5 µM
COc1ccc2ncnc(N3CCC(CCP(=O)(O)O)CC3)c2c1 : < 0.5 µM

IC50 for `COc1cc(OC)c2ncnc(N3CCC(CCP(=O)(O)O)CC3)c2c1` is < 0.5 µM

IC50 for `COc1ccc2c(N3CCC(CCP(=O)(O)O)CC3)ncnc2c1` is < 0.5 µM

IC50 for `O=P(O)(O)CCC1CCN(c2ncnc3ccccc23)CC1` is < 0.5 µM

IC50 for `COc1ccc2c(N3CCC(CCP(=O)(O)O)CC3)ncnc2c1OC` is < 0.5 µM

IC50 for `COc1cc2ccnc(N3CCC(CCP(=O)(O)O)CC3)c2cc1OC` is < 0.5 µM

IC50 for `COc1ccc2c(N3CCC(CCP(=O)(O)O)CC3)nc(/C=C/c3cccnc3)nc2c1` is < 0.5 µM

IC50 for `COc1cc2ncnc(N3CCC(COP(O)(O)=S)CC3)c2cc1OC` is < 0.5 µM

These data points were gathered from patent US20230277570A1.
